# TESTED SYSTEM: N-terminally GST-tagged human full length recombinant Mps-1 kinase (Homo sapiens)
# Construct: N-terminally GST-tagged human full length recombinant Mps-1 kinase; purchased Invitrogen, Karslruhe, Germany PV4071
# Sequence (P33981 whole entry): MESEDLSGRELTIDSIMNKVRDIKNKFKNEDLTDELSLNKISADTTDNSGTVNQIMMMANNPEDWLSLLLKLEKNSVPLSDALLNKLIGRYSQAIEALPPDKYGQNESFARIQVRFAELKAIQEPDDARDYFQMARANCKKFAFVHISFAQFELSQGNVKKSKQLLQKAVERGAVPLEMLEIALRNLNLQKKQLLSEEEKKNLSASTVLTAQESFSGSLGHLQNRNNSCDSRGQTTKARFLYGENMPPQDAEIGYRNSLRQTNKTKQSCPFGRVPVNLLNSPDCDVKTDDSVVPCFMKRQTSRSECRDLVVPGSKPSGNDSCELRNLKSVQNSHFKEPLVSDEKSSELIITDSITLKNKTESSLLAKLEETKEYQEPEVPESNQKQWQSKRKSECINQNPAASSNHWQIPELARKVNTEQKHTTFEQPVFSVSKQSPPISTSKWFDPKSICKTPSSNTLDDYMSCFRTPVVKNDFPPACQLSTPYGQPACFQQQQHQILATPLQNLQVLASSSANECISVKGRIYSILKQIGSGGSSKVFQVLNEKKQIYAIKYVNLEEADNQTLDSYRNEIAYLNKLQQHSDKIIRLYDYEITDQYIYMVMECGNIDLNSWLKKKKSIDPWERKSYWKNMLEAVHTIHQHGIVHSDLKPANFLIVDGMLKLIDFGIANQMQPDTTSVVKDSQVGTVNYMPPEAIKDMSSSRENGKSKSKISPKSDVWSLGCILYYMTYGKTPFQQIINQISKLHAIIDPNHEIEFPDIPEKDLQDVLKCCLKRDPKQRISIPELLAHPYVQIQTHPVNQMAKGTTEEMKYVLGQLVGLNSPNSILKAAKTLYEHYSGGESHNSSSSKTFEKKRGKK
# PROTOCOL TEXT: Mps-1 kinase assay (TR-FRET)
# Format: biochemical
# APPLIED CONDITIONS: Mps1 IC50 [nM], 10 μM ATP, 1 μM peptide substrate, 60 min at 22° C.
ASSAY READOUT: IC50

INSERT INTO results (compound, tested_system, observed_result) VALUES
  ('Cc1cc(-c2cnc3c(NCCC(F)(F)F)cc(Sc4ccccc4CO)nn23)ccc1C(=O)NC1CC1', 'N-terminally GST-tagged human full length recombinant Mps-1 kinase (Homo sapiens)', '0.1 nM'),
  ('CC(C)CNc1cc(-c2cccnc2)nn2c(-c3ccc(C(=O)NC4CC4)cc3)cnc12', 'N-terminally GST-tagged human full length recombinant Mps-1 kinase (Homo sapiens)', '2 nM'),
  ('Cc1cc(-c2cnc3c(NC[C@@H]4CCCO4)cc(-c4ccncc4)nn23)ccc1C(=O)NC1CC1', 'N-terminally GST-tagged human full length recombinant Mps-1 kinase (Homo sapiens)', '1.1 nM'),
  ('Cc1cc(-c2cnc3c(NCC4CCSCC4)cc(Oc4ccc(F)cc4)nn23)ccc1C(=O)NC1CC1', 'N-terminally GST-tagged human full length recombinant Mps-1 kinase (Homo sapiens)', '0.3 nM'),
  ('Cc1ccccc1-c1cc(NCC(C)C)c2ncc(-c3ccc(C(=O)NC4CC4)cc3)n2n1', 'N-terminally GST-tagged human full length recombinant Mps-1 kinase (Homo sapiens)', '1.3 nM'),
  ('CC(C)CNc1cc(-c2ccc(CO)cc2)nn2c(-c3ccc(C(=O)NC4CC4)cc3)cnc12', 'N-terminally GST-tagged human full length recombinant Mps-1 kinase (Homo sapiens)', '< 1 nM'),
  ('Cc1cc(-c2cnc3c(NCCC(F)(F)F)cc(Nc4cc(F)cc(F)c4)nn23)ccc1C(=O)NC1CC1', 'N-terminally GST-tagged human full length recombinant Mps-1 kinase (Homo sapiens)', '0.2 nM'),
  ('COCCNc1cc(NCC(C)(C)O)c2ncc(-c3ccc(C(=O)NC4CC4)c(C)c3)n2n1', 'N-terminally GST-tagged human full length recombinant Mps-1 kinase (Homo sapiens)', '12.6 nM'),
  ('Cc1cc(F)cc(Oc2cc(NCCC(F)(F)F)c3ncc(-c4ccc(C(=O)NC5CC5)c(C)c4)n3n2)c1', 'N-terminally GST-tagged human full length recombinant Mps-1 kinase (Homo sapiens)', '0.4 nM'),
  ('Cc1cc(Nc2cc(NCCC(F)(F)F)c3ncc(-c4ccc(C(=O)NC5CC5)c(C)c4)n3n2)ccc1F', 'N-terminally GST-tagged human full length recombinant Mps-1 kinase (Homo sapiens)', '0.4 nM'),
  ('Cc1cc(-c2cnc3c(NCCC(F)(F)F)cc(Sc4nncn4C)nn23)ccc1C(=O)NC1CC1', 'N-terminally GST-tagged human full length recombinant Mps-1 kinase (Homo sapiens)', '3.5 nM'),
  ('Cc1cc(-c2cnc3c(NCCC(F)(F)F)cc(Oc4cccc(Cl)c4)nn23)ccc1C(=O)NC1CC1', 'N-terminally GST-tagged human full length recombinant Mps-1 kinase (Homo sapiens)', '0.3 nM'),
  ('CNc1cc(Oc2cccc(F)c2F)nn2c(-c3ccc(C(=O)NC4CC4)c(C)c3)cnc12', 'N-terminally GST-tagged human full length recombinant Mps-1 kinase (Homo sapiens)', '0.7 nM'),
  ('Cc1cc(-c2cnc3c(NCC(C)(C)O)cc(Sc4ccccc4O)nn23)ccc1C(=O)NC1CC1 [Example 73A]', 'N-terminally GST-tagged human full length recombinant Mps-1 kinase (Homo sapiens)', '< 0.7 nM'),
  ('CNC(=O)Nc1ccc(-c2cc(NCC(C)C)c3ncc(-c4ccc(C(=O)NC5CC5)cc4)n3n2)cc1', 'N-terminally GST-tagged human full length recombinant Mps-1 kinase (Homo sapiens)', '3.8 nM'),
  ('Cc1cc(-c2cnc3c(NCC4(CO)COC4)cc(Oc4cccc(F)c4)nn23)ccc1C(=O)NC1CC1', 'N-terminally GST-tagged human full length recombinant Mps-1 kinase (Homo sapiens)', '1.5 nM'),
  ('CNC(=O)c1ccc(-c2cnc3c(NCCOC)cc(Oc4ccccc4)nn23)cc1C', 'N-terminally GST-tagged human full length recombinant Mps-1 kinase (Homo sapiens)', '3.2 nM'),
  ('Cc1cc(-c2cnc3c(NCCC(F)(F)F)cc(Oc4ccc(F)c(F)c4)nn23)ccc1C(=O)NC1CC1', 'N-terminally GST-tagged human full length recombinant Mps-1 kinase (Homo sapiens)', '0.2 nM'),
  ('CC(C)CNc1cc(Cl)nn2c(-c3ccc(C(N)=O)cc3)cnc12', 'N-terminally GST-tagged human full length recombinant Mps-1 kinase (Homo sapiens)', '465 nM'),
  ('C/C=C/c1cc(NCCC(F)(F)F)c2ncc(-c3ccc(-c4cnc(C5CC5)[nH]4)cc3)n2n1', 'N-terminally GST-tagged human full length recombinant Mps-1 kinase (Homo sapiens)', '27.3 nM'),
  ('Cc1cc(-c2cnc3c(NCC(C)(C)O)cc(-c4ccccc4)nn23)ccc1C(=O)NC1CC1', 'N-terminally GST-tagged human full length recombinant Mps-1 kinase (Homo sapiens)', '3.2 nM'),
  ('CCNC(=O)c1ccc(-c2cnc3c(NCCN4CCOCC4)cc(Oc4cc(F)ccc4C)nn23)cc1C', 'N-terminally GST-tagged human full length recombinant Mps-1 kinase (Homo sapiens)', '1.5 nM'),
  ('NC(=O)c1ccc(-c2cnc3c(NCc4cccs4)cc(Cl)nn23)cc1', 'N-terminally GST-tagged human full length recombinant Mps-1 kinase (Homo sapiens)', '≥ 20000 nM'),
  ('Cc1cc(-c2cnc3c(NCCC(F)(F)F)cc(Nc4ccccc4F)nn23)ccc1C(=O)NC1CC1', 'N-terminally GST-tagged human full length recombinant Mps-1 kinase (Homo sapiens)', '0.1 nM'),
  ('Cc1cc(-c2cnc3c(NCC(C)(C)O)cc(-c4ccnn4C)nn23)ccc1C(=O)NC1CC1', 'N-terminally GST-tagged human full length recombinant Mps-1 kinase (Homo sapiens)', '3.7 nM'),
  ('Cc1cc(-c2cnc3c(NCCC(F)(F)F)cc(Oc4ccccc4O)nn23)ccc1C(=O)NC1CC1', 'N-terminally GST-tagged human full length recombinant Mps-1 kinase (Homo sapiens)', '0.1 nM'),
  ('Cc1cc(F)cc(Sc2cc(NCCC(F)(F)F)c3ncc(-c4ccc(C(=O)NC5CC5)c(C)c4)n3n2)c1', 'N-terminally GST-tagged human full length recombinant Mps-1 kinase (Homo sapiens)', '0.7 nM'),
  ('C/C=C(\C)c1cc(NCCC(F)(F)F)c2ncc(-c3ccc(-c4cnc(C5CC5)[nH]4)cc3)n2n1', 'N-terminally GST-tagged human full length recombinant Mps-1 kinase (Homo sapiens)', '33.2 nM'),
  ('COc1ccc(Oc2cc(NCC3CCOCC3)c3ncc(-c4ccc(C(=O)NC5CC5)c(C)c4)n3n2)c(F)c1', 'N-terminally GST-tagged human full length recombinant Mps-1 kinase (Homo sapiens)', '0.2 nM'),
  ('CNc1cc(Oc2ccc(F)c(F)c2)nn2c(-c3ccc(C(=O)NC4CC4)c(C)c3)cnc12', 'N-terminally GST-tagged human full length recombinant Mps-1 kinase (Homo sapiens)', '0.4 nM'),
  ('Cc1ccc(F)c(Nc2cc(NCC(C)(C)O)c3ncc(-c4ccc(C(=O)NC5CC5)c(C)c4)n3n2)c1', 'N-terminally GST-tagged human full length recombinant Mps-1 kinase (Homo sapiens)', '0.3 nM');

###

# TESTED SYSTEM: N-terminally GST-tagged human full length recombinant Mps-1 kinase (Homo sapiens)
# Construct: N-terminally GST-tagged human full length recombinant Mps-1 kinase; purchased Invitrogen, Karslruhe, Germany PV4071
# PROTOCOL TEXT: Mps-1 kinase assay (TR-FRET)
# Assay type: biochemical
# APPLIED CONDITIONS: Mps1 IC50 [nM], 10 μM ATP, 1 μM peptide substrate, 60 min at 22° C.
ASSAY READOUT: IC50

INSERT INTO measurements (compound, assay_readout, observed_result) VALUES
  ('Cc1cc(-c2cnc3c(NCC(C)(C)O)cc(Oc4cccc(C#N)c4)nn23)ccc1C(=O)NC1CC1', 'IC50', '0.3 nM'),
  ('Cc1cc(-c2cnc3c(NCC(C)C)cc(SCC4CCCO4)nn23)ccc1C(=O)NC1CC1 (racemic)', 'IC50', '2.5 nM'),
  ('Cc1cc(-c2cnc3c(NCCC(F)(F)F)cc(Nc4ccc(Cl)c(F)c4)nn23)ccc1C(=O)NC1CC1', 'IC50', '0.2 nM'),
  ('Cc1cc(-c2cnc3c(NCC(C)(C)O)cc(-c4cccnc4)nn23)ccc1C(=O)NC1CC1', 'IC50', '5.1 nM'),
  ('CC(C)CNc1cc(-c2cncc(C#N)c2)nn2c(-c3ccc(C(=O)NC4CC4)cc3)cnc12', 'IC50', '2.2 nM'),
  ('Cc1cc(-c2cnc3c(NCC(C)(C)O)cc(Sc4cnccn4)nn23)ccc1C(=O)NC1CC1', 'IC50', '19.2 nM'),
  ('Cc1cc(-c2cnc3c(NCC4CCS(=O)(=O)CC4)cc(Oc4ccccc4F)nn23)ccc1C(=O)NC1CC1', 'IC50', '0.1 nM');
